Reference source: paper PMC5862567

TESTED SYSTEM: sPHGDH (aa 3-314), cofactor-binding pocket (Homo sapiens, UniProt O43175)
Construct: the truncated version (sPHGDH, aa 3-314); His6 (N, cleaved yes); TEV protease recognition site (N, cleaved yes); made in house; host or cells: E. coli Rosetta (DE3)
Sequence (O43175 3-314): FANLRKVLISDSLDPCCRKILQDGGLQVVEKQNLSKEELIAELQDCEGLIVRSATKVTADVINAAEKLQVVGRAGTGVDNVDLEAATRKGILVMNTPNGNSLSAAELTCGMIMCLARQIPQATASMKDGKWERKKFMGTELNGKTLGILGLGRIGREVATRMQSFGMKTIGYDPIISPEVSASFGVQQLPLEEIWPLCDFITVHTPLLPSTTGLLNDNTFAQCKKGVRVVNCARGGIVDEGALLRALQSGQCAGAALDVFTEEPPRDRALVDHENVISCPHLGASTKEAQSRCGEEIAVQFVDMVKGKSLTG
RUN DESCRIPTION: ITC competition experiment (NADH titrated into sPHGDH premixed with fragment)
MEASUREMENT SETUP: competition ITC; 5 mM fragment; 25 °C
Below, each entry is listed with its recorded ΔS.

In the examples that follow, each entry is paired with its recorded ΔS.
COMPOUND | TESTED SYSTEM | ΔS
Cc1cncc(Oc2cccc(CO)c2)n1 [Fragment 7] | sPHGDH (aa 3-314), cofactor-binding pocket (Homo sapiens, UniProt O43175) | 0.02 kJ (mol x K)
Cn1ccc2cc(N)ccc21 [Fragment 9, 5-Amino-1-methyl-1H-indole] | sPHGDH (aa 3-314), cofactor-binding pocket (Homo sapiens, UniProt O43175) | -0.38 kJ (mol x K)
Oc1noc2ccccc12 [Fragment 16, 3-Hydroxy benzisoxazole] | sPHGDH (aa 3-314), cofactor-binding pocket (Homo sapiens, UniProt O43175) | -1.33 kJ (mol x K)
Cc1cccc2cc[nH]c12 [Fragment 6, 7-Methyl-1H-indole] | sPHGDH (aa 3-314), cofactor-binding pocket (Homo sapiens, UniProt O43175) | -5.40 kJ (mol x K)
Nc1cccc(-c2cnco2)c1 [Fragment 10, 3-(1,3-oxazol-5-yl)aniline] | sPHGDH (aa 3-314), cofactor-binding pocket (Homo sapiens, UniProt O43175) | -0.91 kJ (mol x K)

Q: Need ΔS, item Oc1noc2cc(Cl)ccc12 [Fragment 17, 6-chloro-3-hydroxybenzisoxazole]
Ans: -5.14 kJ (mol x K)

Q: Repeat for the following compound: Cc1cncc(Oc2cccc(N)c2)n1 [Fragment 11, 3-(6-Methylpyrazin-2-yl)oxyaniline]
Ans: -0.08 kJ (mol x K)

Q: Repeat for the following compound: Cc1ccc(F)cc1C(=O)O [Fragment 14, 5-Fluoro-2-methylbenzoic acid]
Ans: -0.19 kJ (mol x K)
